The reported numbers originate from patent US20260207535A1.

test system: AtT-20 cells; experiment: Cytotoxicity towards AtT-20 cells (PrestoBlue viability assay); conditions: 25 μM, 24-hour exposure
// reported AtT-20 cell viability (PrestoBlue assay) % of control (DMSO) at 25 μM Mean (SD) for each item listed

Before answering, review these 2 worked examples.
Cc1ccc(NC(=O)c2cc(I)cc(I)c2O)cc1 [Amb8477380]
93.51 (11.59) %
O=C(Nc1ccc(Cl)cc1C(=O)c1ccccc1F)c1ccc(=O)[nH]c1 [Z220328740]
102.9 (15.16) %

Query string: Reported AtT-20 cell viability (PrestoBlue assay) % of control (DMSO) at 25 μM Mean (SD) for O=C(Nc1cc(Cl)cc(Cl)c1)c1cc(I)cc(I)c1O [Amb8477462] : what is it?
Result string: 67.96 (17.52) %

Query string: Consider the compound CC(=O)Oc1c(I)cc(I)cc1C(=O)Nc1ccc(Cl)cc1 [Clioxanide, reference compound] and give its measured AtT-20 cell viability (PrestoBlue assay) % of control (DMSO) at 25 μM Mean (SD).
Result string: 94.21 (12.30) %

Query string: Quick one: AtT-20 cell viability (PrestoBlue assay) % of control (DMSO) at 25 μM Mean (SD) of O=C(CSc1ccccc1F)Nc1cccc(OCc2ccccn2)c1 [Z393438700] ?
Result string: 101.1 (16.04) %

Query string: What measured AtT-20 cell viability (PrestoBlue assay) % of control (DMSO) at 25 μM Mean (SD) goes with O=C(Nc1cc(Cl)cc(Cl)c1O)c1c(O)c(Cl)cc(Cl)c1Cl [Oxyclozanide, reference compound] ?
Result string: 98.08 (14.38) %

Query string: So what's the measured AtT-20 cell viability (PrestoBlue assay) % of control (DMSO) at 25 μM Mean (SD) for this one? Cc1ccc(C(=O)c2cc(NC(=O)c3cc(I)cc(I)c3O)ccc2Cl)cc1 [Amb4103735]
Result string: 109.4 (18.18) %

Query string: Return reported AtT-20 cell viability (PrestoBlue assay) % of control (DMSO) at 25 μM Mean (SD); argument: O=C(Nc1cc(Cl)ccc1Cl)c1cc(I)cc(I)c1O [Amb8477378]
Result string: 95.72 (11.42) %

Query string: Which AtT-20 cell viability (PrestoBlue assay) % of control (DMSO) at 25 μM Mean (SD) reading was recorded for the compound O=C(Nc1ccc(Cl)cc1Cl)c1cc(I)cc(I)c1O [Amb8487151] ?
Result string: 89.58 (10.11) %
